The origin of these recorded values is the Human Domainome abundance scans (Beltran et al. 2025).

B1: E3 ubiquitin-protein ligase TRIM36, residues 208 to 252; numbered along this chain, Q9NQ86 (parent)
chain: KILMCPEHETERINMYCELCRRPVCHLCKLGGNHANHRVTTMSSA

# Variants of: B1
# Procedure Summary: abundance fitness (aPCA) (normalised: wild type 0, dead -1); higher = more abundant; growth selection in yeast, the domain comes from the species named
# Test Settings: Homo sapiens
Heads up, the class ranges for abundance fitness are low range: < -0.3; mid range: ≥ -0.3 and < -0.01; high range: ≥ -0.01

Which category does the recorded abundance fitness put `H34I` in?
low range

Which category does the recorded abundance fitness put `P23G` in?
high range

Which category does the recorded abundance fitness put `L19W` in?
mid range

Which category does the recorded abundance fitness put `C28L` in?
low range

Which category does the recorded abundance fitness put `L27G` in?
mid range

Which category does the recorded abundance fitness put `L27E` in?
mid range

Which category does the recorded abundance fitness put `C28I` in?
low range

Which category does the recorded abundance fitness put `N33A` in?
high range
